Hello, the source for this data is ChEMBL document CHEMBL1201862, in case you need it.

Quick list: GI50 per entry.
- Test system: OVCAR-3
- protocol.details: NCI tumour cell line growth inhibition, 48 h
Calls of active or inactive are those of the source. Cut-off read from the data, not from the text of the source: active = GI50 up to about 1.1 µM and inactive = higher.

Known GI50 results, listed for orientation:
molecule: O=C(NC(CS)C(=O)O)c1c2ccccc2nc2ccccc12 (stereo unspecified)
GI50: > 100 µM (inactive)
//
molecule: COC(=O)CCCc1ccc2c(c1)CCC2
GI50: > 100 µM (inactive)
//
molecule: CCC12CCCN(Cc3ccccc3)C1c1c(n(C)c3ccccc13)C(CO)C2 (stereo unspecified)
GI50: 36.1 µM (inactive)
//
molecule: Cc1cc(C)nc(NS(=O)(=O)c2ccc(NC(=O)c3ccc(Cl)c4c(Nc5ccc(S(=O)(=O)N=C(N)N)cc5)c5ccccc5nc34)cc2)n1
GI50: 44.3 µM (inactive)
//
molecule: COc1ccc(/C(=C\c2cc(OC)c(OC)c(OC)c2)C(=O)O)cc1
GI50: 32 µM (inactive)

Ask: Kindly state the measured GI50 obtained for `Cc1ccc(C)c(NC(=O)CCc2n[nH]c(=S)o2)c1` with OVCAR-3.
Result: > 100 µM (inactive)

---

- Tested on: COLO 205
- protocol.details: NCI tumour cell line growth inhibition, 48 h
Active and inactive are the calls of the source. Cut-off read from the data, not from the text of the source: active = GI50 up to about 1.1 µM and inactive = higher.
Quick list: GI50 per entry.

Known GI50 results, listed for orientation:
molecule: CC(=O)Nc1cc2cc(N)ccc2oc1=O
result.value: > 100 µM (inactive)
--
molecule: COc1ccc(Nc2nc3c(N)cc(C(F)(F)F)cc3nc2-c2ccccc2)cc1OC
result.value: 55.7 µM (inactive)
--
molecule: Nc1nc(N)c2cc(-c3ccccc3)cnc2n1
result.value: 14.3 µM (inactive)
--
molecule: O=C(CCc1cc(-c2ccc(F)cc2)n[nH]1)N(Cc1ccccc1)Cc1ccccc1
result.value: > 100 µM (inactive)
--
molecule: CC(=O)Oc1ccc(-c2c(OC(C)=O)c(OC(C)=O)c(-c3ccc(OC(C)=O)c(OC(C)=O)c3)c(OC(C)=O)c2OC(C)=O)cc1
result.value: 17.7 µM (inactive)
--
molecule: COC(=O)c1c2cccccc-2c(Cc2c3cccccc-3c(C(=O)OC)c2O)c1O
result.value: > 100 µM (inactive)
--
molecule: O=[N+]([O-])c1ccc(Cc2nc3cc4ccccc4cc3[nH]2)cc1C(F)(F)F
result.value: 4.32 µM (inactive)
--
molecule: CC(C)CCC[C@@H](C)C1CCC2[C@@H]3CCC4CC(CCC=C(c5cc(Cl)c(OC(=O)c6ccccc6)c(C(=O)O)c5)c5cc(Cl)c(OC(=O)c6ccccc6)c(C(=O)O)c5)CC[C@]4(C)C3CC[C@@]21C (some centres undefined)
result.value: > 100 µM (inactive)

Ask: For the molecule `CN(NC(=O)c1cccs1)C1=NCCCCN1` , what GI50 is on record?
Result: > 100 µM (inactive)

Ask: For the molecule OCC(O)CNc1ncnc2ccccc12 (centres undefined) , what GI50 is on record?
Result: > 100 µM (inactive)

---

Quick list: GI50 per entry.
- System: SK-MEL-28
- protocol.details: NCI tumour cell line growth inhibition, 48 h
The source made the active and inactive calls. No stated cut-off is given here; in the data, active = GI50 up to about 1.1 µM and inactive = higher.

chem.smiles: CC(=O)Nc1cc2cc(N)ccc2oc1=O
result.value: > 100 µM (inactive)
//
chem.smiles: CC(=O)N/C(=C\c1cccc([N+](=O)[O-])c1)c1nc2ccc3c(c2[nH]1)C(=O)c1ccccc1C3=O
result.value: > 100 µM (inactive)
//
chem.smiles: CCOC(=O)c1nc2cc(F)cc(F)c2[nH]c1=O
result.value: > 100 µM (inactive)
//
chem.smiles: COC(=O)c1cc2ccc(N)nc2[nH]c1=O
result.value: > 100 µM (inactive)
//
chem.smiles: Cc1cccc(NC(=O)c2c(N)[n+]([O-])c3ccccc3[n+]2[O-])c1
result.value: 8.05 µM (inactive)

Moving on to the next molecule.
Ask: Kindly state the measured GI50 obtained for `CCc1ccccc1/N=N/C(=O)NNc1ccccc1CC` with SK-MEL-28.
Result: 17.7 µM (inactive)

---

- Tested on: SF-539
- protocol.details: NCI tumour cell line growth inhibition, 48 h
The source made the active and inactive calls. No stated cut-off is given here; in the data, active = GI50 up to about 1.1 µM and inactive = higher.
Quick list: GI50 per entry.

molecule: OC(Cc1cnnc2ccccc12)C(Cl)(Cl)Cl (centres undefined)
GI50: > 10 µM (inactive)
--
molecule: Nc1ncnc2c1ncn2C1OC(CO)C(O)C1NS(=O)(=O)c1ccccc1 (centres undefined)
GI50: > 100 µM (inactive)
--
molecule: Nc1nnc(NC(=O)C2=NS(=O)(=O)c3cc(S(N)(=O)=O)c(Cl)cc3N2)[nH]1
GI50: > 100 µM (inactive)
--
molecule: CC(=O)Nc1cc2cc(N)ccc2oc1=O
GI50: > 100 µM (inactive)

Ask: For the molecule CN(C)C(=O)CC(C(=O)O)c1c[nH]c2ccccc12 (centres undefined) , what GI50 is on record?
Result: > 100 µM (inactive)

Ask: For the molecule CSC1(CC(=O)N(C)C)C(=O)Nc2ccccc21 (centres undefined) , what GI50 is on record?
Result: > 100 µM (inactive)

Ask: For the molecule `Clc1ncnc2c1nc(C#Cc1ccccc1)n2Cc1ccccc1` , what GI50 is on record?
Result: 29.9 µM (inactive)

Ask: For the molecule O=C1CC(c2ccc(O)cc2)C2(O1)C(=O)OC(C(O)CO)C2O (centres undefined) , what GI50 is on record?
Result: > 100 µM (inactive)

---

- Test system: UACC-62
- protocol.details: NCI tumour cell line growth inhibition, 48 h
Activity calls are given as the source filed them. Cut-off read from the data, not from the text of the source: active = GI50 up to about 1.1 µM and inactive = higher.
Outcome field: choose from 1 for active, 0 for inactive

compound: O=[N+]([O-])/C(C(Cl)=C(Cl)Cl)=C1/OCCS1
assigned.class: 0
--
compound: CC[N+](C)(CC)CC(C)(C)C(=O)/C=C/c1ccc(/C=C/C(=O)C(C)(C)C[N+](C)(CC)CC)cc1
assigned.class: 0

Ask: Could you check what this test reported for Cc1cn(C2CC(OP(=O)(O)OCC3OC(n4c[n+]([BH2-]C#N)c5c(=O)[nH]c(N)nc54)CC3O)C(CO)O2)c(=O)[nH]c1=O (configuration not stated) ?
Result: 0

Ask: Could you check what this test reported for O=C(CC1(O)C(=O)Nc2c(Cl)cc(Cl)cc21)c1ccc2ccccc2c1 (configuration not stated) ?
Result: 0

Ask: Could you check what this test reported for `COc1cc2c(c(OC)c1)C(=O)C(=O)C(CC1(C)OCCCO1)=C2` ?
Result: 0

Ask: Could you check what this test reported for `Cc1ccc(S(=O)(=O)OI(O)CC(F)(F)F)cc1` ?
Result: 0

Ask: Could you check what this test reported for Nc1nc(N)c2nc(CNc3ccc(C(=O)NC(CCCCNC(=O)c4ccccc4C(=O)O)C(=O)O)cc3)cnc2n1 (configuration not stated) ?
Result: 1

---

- System: UACC-257
- protocol.details: NCI tumour cell line growth inhibition, 48 h
Calls of active or inactive are those of the source. No stated cut-off is given here; in the data, active = GI50 up to about 1.1 µM and inactive = higher.
observed.property: GI50

molecule: O=C(/C=C/c1ccc([N+](=O)[O-])o1)N1CCN(Cc2ccccc2)CC1
subject.of.test: UACC-257
GI50: 7.89 µM (inactive)
//
molecule: CCC1C(c2cc(OC)c(OC)c(OC)c2)c2cc3c(cc2OC1N1CCCC1)OCO3 (configuration not stated)
subject.of.test: UACC-257
GI50: 4.59 µM (inactive)
//
molecule: O=[N+]([O-])c1ccc(/C=N/n2c(CO)nc3ccccc32)o1
subject.of.test: UACC-257
GI50: 2.44 µM (inactive)
//
molecule: Cc1cc(C)c(S(=O)(=O)N2CCCN(S(=O)(=O)c3c(C)cc(C)cc3C)OCCCO2)c(C)c1
subject.of.test: UACC-257
GI50: 45.9 µM (inactive)
//
molecule: CC1=C(CO)C(=O)OC(C(C)C2CCC3C4CC5OC56C(O)C(N5CC5)=CC(=O)C6(C)C4CCC23C)C1 (configuration not stated)
subject.of.test: UACC-257
GI50: 11.9 µM (inactive)

Ask: For the molecule `CCOC(=O)Cn1c(=O)ccn(COCCO)c1=O` , what GI50 is on record?
Result: > 100 µM (inactive)

Ask: For the molecule `N#C[C@](CO)(NC(=O)OCc1ccccc1)C(F)F` , what GI50 is on record?
Result: > 100 µM (inactive)

Ask: For the molecule `O=C(Oc1ccc(Cl)cc1[N+](=O)[O-])c1ccccc1` , what GI50 is on record?
Result: > 100 µM (inactive)

Ask: For the molecule `COC(=O)c1cc2ccc(N)nc2[nH]c1=O` , what GI50 is on record?
Result: > 100 µM (inactive)

Ask: For the molecule O=[N+]([O-])c1ccc(NC2OCC(O)C(O)C2O)cc1 (configuration not stated) , what GI50 is on record?
Result: > 100 µM (inactive)

Ask: For the molecule COc1ccc(C2SCC(=O)N2NC2=NC(=O)CC(=O)N2)cc1 (configuration not stated) , what GI50 is on record?
Result: > 100 µM (inactive)

Ask: For the molecule Cc1ccc2c(c1)CC1(Cc3ccccc3C1=O)C2=O (configuration not stated) , what GI50 is on record?
Result: > 100 µM (inactive)

Ask: For the molecule `CC(C)CCC[C@@H](C)[C@H]1CC[C@H]2[C@@H]3CC=C4C[C@@H](OC(=O)c5cccc6c(=O)c7ccccc7[nH]c56)CC[C@]4(C)[C@H]3CC[C@]12C` , what GI50 is on record?
Result: > 75 µM (inactive)

Ask: For the molecule `Nn1c(S)nnc1CCCCCCCCc1nnc(S)n1N` , what GI50 is on record?
Result: > 100 µM (inactive)

Ask: For the molecule C[C@]12CCC3C4=C(CCC3C1CCC2=O)C(=O)[C@H]1O[C@H]1C4=O (some centres not stated) , what GI50 is on record?
Result: 17.4 µM (inactive)

Ask: For the molecule N#CC(C(=N/NC(N)=S)/C(=N/NC(N)=S)C(C#N)c1ccc(Cl)cc1)c1ccc(Cl)cc1 (configuration not stated) , what GI50 is on record?
Result: > 100 µM (inactive)

Ask: For the molecule `O=c1cc(-c2ccccc2)oc2c1ccc1nc3ccccc3c(O)c12` , what GI50 is on record?
Result: > 100 µM (inactive)

Ask: For the molecule COC(=O)C1=C(C(=O)OC)C2(OC(C)=O)c3ccccc3-c3ccccc3C12 (configuration not stated) , what GI50 is on record?
Result: 5.96 µM (inactive)

Ask: For the molecule `CSc1ccc(NC(=S)NN(C)C)cc1` , what GI50 is on record?
Result: > 10 µM (inactive)

Ask: For the molecule `O=C(CCc1cc(-c2ccc(F)cc2)n[nH]1)N(Cc1ccccc1)Cc1ccccc1` , what GI50 is on record?
Result: > 100 µM (inactive)

Ask: For the molecule `COc1ccc(/C=N/n2cnc3c(sc(=S)n3-c3ccccc3)c2=O)cc1` , what GI50 is on record?
Result: 23.6 µM (inactive)

Ask: For the molecule `CC(C)(C)c1cc([N+](=O)[O-])cc([N+](=O)[O-])c1O` , what GI50 is on record?
Result: 8.57 µM (inactive)

Ask: For the molecule `CCOC(=O)/C(C#N)=C(O)/C(=C\c1ccc(Br)cc1)NC(=O)c1ccccc1` , what GI50 is on record?
Result: > 100 µM (inactive)

Ask: For the molecule `O=c1oc2ccc(Cl)cc2c2ccccc12` , what GI50 is on record?
Result: > 100 µM (inactive)

Ask: For the molecule COc1ccc(C(C#N)NC23CC4CC(CC(C4)C2)C3)cc1OC (configuration not stated) , what GI50 is on record?
Result: > 100 µM (inactive)

Ask: For the molecule `COc1c(C)c2c(c3c1c(=O)c1ccccc1n3C)C=CC(C)(C)O2` , what GI50 is on record?
Result: 28.9 µM (inactive)

Ask: For the molecule `CC[n+]1[b-](C(C)(C)C)n(/N=C/C(C)(C)C)[b-](C(C)(C)C)[n+]1CC` , what GI50 is on record?
Result: > 100 µM (inactive)

Ask: For the molecule O=C1CC(c2ccc(O)cc2)C2(O1)C(=O)OC(C(O)CO)C2O (configuration not stated) , what GI50 is on record?
Result: > 100 µM (inactive)
